SYSTEM: T1, ExoI Glu318Ala variant (Escherichia coli, UniProt P04995 1-475)
T1 construct: also called E318A; Glu318 variant
T1 sequence: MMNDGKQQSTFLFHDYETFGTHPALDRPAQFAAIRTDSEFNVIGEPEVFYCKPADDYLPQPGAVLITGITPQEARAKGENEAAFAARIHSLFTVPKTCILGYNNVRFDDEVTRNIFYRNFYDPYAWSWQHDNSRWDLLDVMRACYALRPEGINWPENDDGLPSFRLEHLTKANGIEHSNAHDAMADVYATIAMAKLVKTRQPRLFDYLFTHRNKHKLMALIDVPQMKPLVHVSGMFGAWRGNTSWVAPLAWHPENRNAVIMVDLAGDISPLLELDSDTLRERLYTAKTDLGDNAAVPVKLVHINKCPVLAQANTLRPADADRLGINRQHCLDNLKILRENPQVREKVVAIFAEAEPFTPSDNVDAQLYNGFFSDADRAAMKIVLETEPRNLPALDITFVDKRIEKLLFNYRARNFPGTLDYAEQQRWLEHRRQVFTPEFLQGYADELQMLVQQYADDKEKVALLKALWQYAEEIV
PROCEDURE SUMMARY: fluorescence anisotropy equilibrium binding (Kd,app), ExoI variant titrated into fluorescein-labeled peptide
Where no end group is shown, it is not given here. fluorescein = fluorescein moiety attached to the N-terminus of the peptide (N-terminal fluorescein label)
MEASURED METRIC: Kd (nM)
Give bare numbers, in nM.

Challenge: So what's the measured Kd for this one? fluorescein-WMDFDDDIPF (also called F-SSB-Ct; F-WT) [fluorescein-labeled SSB C-terminal peptide (fluorescein-WMDFDDDIPF)]
Response given: 80
